In this section, each of the compounds is paired with its reported Specific Heat Capacity.
Assay: Specific heat capacity
Format: physicochemical
# unit: J/kg-K | format: bare number

Reference set, count: 5
{"columns": ["compound", "Specific Heat Capacity [J/kg-K]"],
 "data": [
  ["FC(F)(F)C1(F)OC1(F)C(F)(C(F)(F)F)C(F)(F)F (stereo not drawn)", 1145],
  ["FC(F)(F)C(F)(F)C(F)(F)N(C(F)(F)C(F)(F)C(F)(F)F)C(F)(F)C(F)(F)C(F)(F)F", 1100],
  ["O=C(C(F)(F)C(F)(F)F)C(F)(C(F)(F)F)C(F)(F)F", 1103],
  ["FC1(F)C(F)(F)C(F)(F)C2(F)OC2(F)C1(F)F (stereo not drawn)", 1083],
  ["FC(F)(F)C(F)(F)C(F)(F)C(F)(F)C(F)(F)C(F)(F)F", 1100]
]}

Below: the item to evaluate.
Entry CCOC(F)(C(F)(F)C(F)(F)C(F)(F)F)C(F)(C(F)(F)F)C(F)(F)F (stereo not drawn) needs its Specific Heat Capacity filled in; supply it. 1128
